Tested on: Skin-2 model ZK1301
ASSAY PROCEDURE: Skin-2 model: mRNA expression by RT-PCR, semi-quantitative
EXPERIMENTAL CONDITIONS: Skin-2 model, 1 µM; semi quantitative mRNA change vs control
VALUE TYPE: k16

Kindly note the recorded k16 for C[C@H]1C[C@H]2[C@@H]3CCC4=CC(=O)C=C[C@]4(C)[C@@]3(F)[C@@H](O)C[C@]2(C)[C@@]1(O)C(=O)CO [betameth, betamethasone] , which is -1

Kindly note the recorded k16 for CC1=C(/C=C/C(C)=C/C=C/C(C)=C/C(=O)O)C(C)(C)CCC1 [RA, All-trans-retinoic acid] , which is -0.5

Kindly note the recorded k16 for C=C1C(=CC=C2CCCC3(C)C2CCC3C(C)CCCC(C)(C)O)CC(O)CC1O (stereo not shown) [vit D, 1,25-(OH)2-vitamin D3] , which is 0

Kindly note the recorded k16 for O=C(O)Cc1cc(I)c(Oc2ccc(O)c(I)c2)c(I)c1 [Triac, tri-iodothyroacetic acid] , which is -0.5

* * *

TEST TARGET: human thyroid receptor (Homo sapiens, UniProt P10828)
Sequence (P10828 whole entry): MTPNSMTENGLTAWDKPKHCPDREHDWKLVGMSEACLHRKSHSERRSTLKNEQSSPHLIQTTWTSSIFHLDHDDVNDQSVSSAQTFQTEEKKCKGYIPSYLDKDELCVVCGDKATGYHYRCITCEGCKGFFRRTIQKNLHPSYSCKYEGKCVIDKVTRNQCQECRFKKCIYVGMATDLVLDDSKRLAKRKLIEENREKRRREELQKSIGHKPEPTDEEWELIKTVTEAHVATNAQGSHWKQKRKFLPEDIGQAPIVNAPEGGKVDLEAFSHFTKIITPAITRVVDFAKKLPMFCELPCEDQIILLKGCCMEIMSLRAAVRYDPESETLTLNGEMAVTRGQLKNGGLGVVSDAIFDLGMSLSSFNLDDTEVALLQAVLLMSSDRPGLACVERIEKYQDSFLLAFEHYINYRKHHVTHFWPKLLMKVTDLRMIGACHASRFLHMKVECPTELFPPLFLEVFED
ASSAY PROCEDURE: Thyroid hormone receptor binding affinity
EXPERIMENTAL CONDITIONS: Table 3; binding affinity to the human thyroid receptor; read-out: Ki
VALUE TYPE: Ki

Kindly note the recorded Ki for "Cc1cc(C[C@H](N)C(=O)O)cc(C)c1Oc1ccc(O)c(C(C)C)c1" , which is 75 nM

* * *

Test system: Skin-2 model ZK1301
ASSAY PROCEDURE: Skin-2 model: mRNA expression by RT-PCR, semi-quantitative
EXPERIMENTAL CONDITIONS: Skin-2 model, 1 µM; semi quantitative mRNA change vs control
VALUE TYPE: tgfbeta-2
# output: bare number, no unit

Kindly note the recorded tgfbeta-2 for CC1=C(/C=C/C(C)=C/C=C/C(C)=C/C(=O)O)C(C)(C)CCC1 [RA, All-trans-retinoic acid] , which is 2

Kindly note the recorded tgfbeta-2 for C=C1C(=CC=C2CCCC3(C)C2CCC3C(C)CCCC(C)(C)O)CC(O)CC1O (stereo not shown) , which is 2

Kindly note the recorded tgfbeta-2 for "C[C@H]1C[C@H]2[C@@H]3CCC4=CC(=O)C=C[C@]4(C)[C@@]3(F)[C@@H](O)C[C@]2(C)[C@@]1(O)C(=O)CO" , which is 0

Kindly note the recorded tgfbeta-2 for "O=C(O)Cc1cc(I)c(Oc2ccc(O)c(I)c2)c(I)c1" , which is 2

* * *

Tested on: Skin-2 model ZK1301
ASSAY PROCEDURE: Skin-2 model: mRNA expression by RT-PCR, semi-quantitative;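 note: Three-dimensional human skin equivalent of dermal fibroblasts and foreskin keratinocytes at an air-liquid interface, exposed for 10 or 48 h, mRNA measured in total RNA by RT-PCR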
EXPERIMENTAL CONDITIONS: Skin-2 model, 1 µM; semi quantitative mRNA change vs control
VALUE TYPE: crabp-II
# output: bare number, no unit

Kindly note the recorded crabp-II for C[C@H]1C[C@H]2[C@@H]3CCC4=CC(=O)C=C[C@]4(C)[C@@]3(F)[C@@H](O)C[C@]2(C)[C@@]1(O)C(=O)CO [betameth, betamethasone] , which is -1

Kindly note the recorded crabp-II for CC1=C(/C=C/C(C)=C/C=C/C(C)=C/C(=O)O)C(C)(C)CCC1 [RA, All-trans-retinoic acid] , which is 1

Kindly note the recorded crabp-II for C=C1C(=CC=C2CCCC3(C)C2CCC3C(C)CCCC(C)(C)O)CC(O)CC1O (stereo not shown) [vit D, 1,25-(OH)2-vitamin D3] , which is -1

Kindly note the recorded crabp-II for O=C(O)Cc1cc(I)c(Oc2ccc(O)c(I)c2)c(I)c1 [Triac, tri-iodothyroacetic acid] , which is -1
